- Test system: U2OS
- assay.method.text: Multiplex assay against U2OS
- Format: toxicity, cell-based
- conditions.used: human, 48 h, 10 µM, compound concentration 10 uM, replicate 2
Param threshold (80%) applies to Population Apoptotic (%); output criterion met when value >= threshold, criterion not met when value < threshold.

[ask] Is reported Population Apoptotic (%) greater than or equal to 80% here: CC(C)(C)c1ccc(CSc2cnn(C(C)(C)C)c(=O)c2Cl)cc1 [PYRIDABEN]
[reply] criterion met

[ask] # check: Population Apoptotic (%) of "Cn1cc(C(=O)OCC2CCN(CCNS(C)(=O)=O)CC2)c2ccccc21" is greater than or equal to 80%
[reply] criterion not met

[ask] Please check the record CSc1nc(NC2CCCC2)c([N+](=O)[O-])c(NC2CCCC2)n1 [GS-39783] and state if its Population Apoptotic (%) is at or above 80%.
[reply] criterion met

[ask] Does the compound COc1cc2nc(N3CCN(C(=O)c4ccco4)CC3)nc(N)c2cc1OC.Cl [PRAZOSIN HYDROCHLORIDE] have recorded Population Apoptotic (%) that is 80% or more?
[reply] criterion met

[ask] Decide: Population Apoptotic (%) of O=c1nc2[nH]c3ccccc3nc-2c(=O)[nH]1 [ALLOXAZINE] >= 80%?
[reply] criterion not met

[ask] In plain terms: is recorded Population Apoptotic (%) at least 80% for "S=C(NCCCc1c[nH]cn1)NCCCN(Cc1ccc(Cl)c(Cl)c1)c1ccc(Br)cn1" ?
[reply] criterion not met

[ask] Decide: is the reported value of Population Apoptotic (%) for CC(C)C[C@H](CO)Nc1nc(S[C@@H](C)c2ccccc2)nc2nc(N)sc12 [AZD-8797] equal to or greater than 80%?
[reply] criterion met

[ask] Is reported Population Apoptotic (%) greater than or equal to 80% here: COc1ccc2[nH]c(I)c(CCNC(C)=O)c2c1 [IODOMELATONIN]
[reply] criterion met

[ask] Hi team, for "OCCCNc1cc(-c2ccnc(Nc3cccc(Cl)c3)n2)ccn1" , is the recorded Population Apoptotic (%) at or above 80%?
[reply] criterion met

###

Would you mind telling me the reported Population Pyknosed Nuclei (%) of each entry?
- Tested on: HEK-293T
- assay.method.text: Multiplex assay against HEK293T
- Type: toxicity, cell-based
- conditions.used: human, 12 h, 10 µM, compound concentration 10 uM, replicate 2
Non-standard residues stand in square brackets, D forms with d. Residues, ends and D or L forms follow the SMILES beside them.
Respond numerically; units are % and should not be typed.

[ask] Could you tell me which Population Pyknosed Nuclei (%) is on file for CCn1c(-c2nc3cc(C(=O)N4CCCC(N)C4)ccc3n2C)cc2ccccc21.Cl (configuration not stated) ?
[reply] 15

[ask] Population Pyknosed Nuclei (%) lookup needed for "Nc1nc(-c2ccco2)c2cnn(Cc3ccccc3F)c2n1" , thanks.
[reply] 17

[ask] Entry "COc1c(Nc2ccc(S(C)(=O)=O)nc2C)ncnc1OC1CCN(C(=O)OC(C)C)CC1" : reported Population Pyknosed Nuclei (%) = ?
[reply] 20

[ask] Would you mind telling me what Population Pyknosed Nuclei (%) value was observed for CC(C)C[C@@H]1NC(=O)[C@@H](C(C)C)NC(=O)[C@@H]2CCCN2C(=O)[C@@H](CC(=O)O)NC(=O)[C@@H](Cc2c[nH]c3ccccc23)NC1=O [BQ-123] (cyclo(L[dW][dD]P[dV])) ?
[reply] 16

[ask] Record request: Population Pyknosed Nuclei (%) value, item O=C(NCCNCC(O)COc1ccc(O)cc1)N1CCOCC1.O=C(NCCNCC(O)COc1ccc(O)cc1)N1CCOCC1.O=C(O)/C=C/C(=O)O (configuration not stated) [XAMOTEROL FUMARATE]
[reply] 9

[ask] What does the record list as Population Pyknosed Nuclei (%) for "CCCCC[C@H](O)/C=C/[C@H]1[C@H](O)CC(=O)[C@@H]1CCCCCCC(=O)O" ?
[reply] 17

[ask] # get_value(readout='Population Pyknosed Nuclei (%)', item= "S=C(NCCCc1c[nH]cn1)NCCCN(Cc1ccc(Cl)c(Cl)c1)c1ccc(Br)cn1" )
[reply] 19

[ask] Fill in: Population Pyknosed Nuclei (%) of "C[C@@H]1CC(=O)Nc2cccc(-c3ccc4c(c3)c(-c3cnn(C)c3)nn4C)c2N1" is ___
[reply] 16

[ask] Population Pyknosed Nuclei (%) for CN1C[C@H](C(=O)N[C@]2(C)O[C@@]3(O)[C@@H]4CCCN4C(=O)[C@H](Cc4ccccc4)N3C2=O)C[C@@H]2c3cccc4[nH]cc(c34)C[C@H]21.CS(=O)(=O)O [DIHYDROERGOTAMINE MESYLATE] ?
[reply] 13

[ask] Find the recorded Population Pyknosed Nuclei (%) belonging to "CSc1nc(NC2CCCC2)c([N+](=O)[O-])c(NC2CCCC2)n1" and report it.
[reply] 10

[ask] For the molecule shown here, Cc1ccc(OCC(O)C(C)NC(C)C)c2c1CCC2.Cl (configuration not stated) , give the reported Population Pyknosed Nuclei (%).
[reply] 14

[ask] Please look up its Population Pyknosed Nuclei (%): "COc1cc(C(=O)N2CC[C@@H](O)[C@@H](N)C2)cc2nc(-c3cc4ccccc4n3CC3CC3)n(C)c12.Cl"
[reply] 15

[ask] Quick check: Population Pyknosed Nuclei (%) of "CN1CCC(C(=O)c2cccc(NC(=O)c3c(F)cc(F)cc3F)n2)CC1" ?
[reply] 13

[ask] What does the record list as Population Pyknosed Nuclei (%) for CCC(=O)OCC(=O)[C@@]1(OC(=O)CC)[C@@H](C)C[C@H]2[C@@H]3CCC4=CC(=O)C=C[C@]4(C)[C@@]3(Cl)[C@@H](O)C[C@@]21C [BECLOMETHASONE DIPROPIONATE] ?
[reply] 27

[ask] Item "O=c1nc2[nH]c3ccccc3nc-2c(=O)[nH]1" has what recorded Population Pyknosed Nuclei (%)?
[reply] 20

[ask] Quick one: Population Pyknosed Nuclei (%) for "COc1cc(OC2CCN(C(C)=O)CC2)ccc1C(=O)N1CCC(N2C(=O)OCc3ccccc32)CC1" ?
[reply] 14

[ask] Form field: reported Population Pyknosed Nuclei (%) of "Cc1cc(O)c(-c2ccc([C@@H](C)CN(C)C)cc2)c2c1[nH]c(=O)c1sccc12"
[reply] 31

[ask] Please look up its Population Pyknosed Nuclei (%): Cl.Cl.OCCOCCN1CCN(C(c2ccccc2)c2ccc(Cl)cc2)CC1 (configuration not stated) [HYDROXYZINE HYDROCHLORIDE]
[reply] 20

[ask] For the molecule shown here, "Cc1c(Cc2ccc3ccccc3n2)c2cc(F)ccc2n1CC(=O)O" , give the reported Population Pyknosed Nuclei (%).
[reply] 15

[ask] Find the recorded Population Pyknosed Nuclei (%) belonging to "COCCn1c(C)c(C)s/c1=N\C(=O)C1C(C)(C)C1(C)C" and report it.
[reply] 16

[ask] Field request: Population Pyknosed Nuclei (%) | item: "CCc1nn2c(C)cc(C)nc2c1Cc1ccc(-c2nnc(C3CCNCC3)o2)cc1"
[reply] 17

[ask] # query: Population Pyknosed Nuclei (%) of entry CN(C)C/C=C/C(=O)Nc1ccc(C(=O)N2CCCC(Nc3ncc(Cl)c(-c4c[nH]c5ccccc45)n3)C2)cc1 (configuration not stated)
[reply] 28

[ask] Can you share its Population Pyknosed Nuclei (%)? I mean this molecule: "OCCCNc1cc(-c2ccnc(Nc3cccc(Cl)c3)n2)ccn1"
[reply] 18

[ask] Look at this molecule and give its reported Population Pyknosed Nuclei (%). "Nc1nc(CC(=O)Nc2ccc(CCNC[C@H](O)c3ccccc3)cc2)cs1"
[reply] 14

[ask] Find the recorded Population Pyknosed Nuclei (%) belonging to "COc1ccc2[nH]c(I)c(CCNC(C)=O)c2c1" and report it.
[reply] 14

[ask] Item under review: "COc1cc2nc(N3CCN(C(=O)COc4c(OC)cccc4C(C)C)CC3)nc(N)c2cc1OC.Cl.Cl" . Reported Population Pyknosed Nuclei (%)?
[reply] 18

[ask] So what does the record say about Population Pyknosed Nuclei (%) for "N[C@](CC1c2ccccc2Oc2ccccc21)(C(=O)O)[C@H]1C[C@@H]1C(=O)O" ?
[reply] 13

Numbers sourced from ChEMBL document CHEMBL5058577.
